- Test system: Vaccine virus
- Assay type: cell-based
- Conditions: Substance concentration: 200γ/0,02 ml; 1% solution; chick fibroblasts
Quantity Measured: Virustatic properties Vaccine (inhibition areola)

Virustatic properties Vaccine (inhibition areola) lookup needed for Cl.NC12CC3CC(CC(C3)C1)C2 [1-Aminoadamantane hydrochloride, reference compound] , thanks.
0

* * *

- System: various virus strains
- Test Description: in-vitro plaque reduction test
- Assay type: cell-based
- Conditions: 20 γ/ml
Quantity Measured: inhibition at 20 µg/mL

Give its inhibition at 20 µg/mL value. Item: CCCCCCCCCCCCOC(=S)[S-].[Na+] [n-Dodecyl Na, Sodium dodecyl xanthate]
100%

# query: inhibition at 20 µg/mL of entry Cl.NC12CC3CC(CC(C3)C1)C2 [1-Aminoadamantane hydrochloride, reference compound]
10%

Given the entry S=C([S-])OC1CCCCCCCCCCC1.[Na+] [Example 1, Sodium cyclododecyl xanthate] , report its measured inhibition at 20 µg/mL.
100%

Form field: reported inhibition at 20 µg/mL of S=C([S-])OC1CCCCC1.[Na+] [Example 3, Sodium cyclohexyl xanthate]
100%

Numbers sourced from patent US4981869A.
